Below is a list of entries, each paired with its recorded metabolised at 20 min value.
Test system: e-NPP1
experiment: Stability of the compound assessed as human e-NPP1-mediated hydrolysis at pH 8.5 after 20 mins by HPLC analysis
Format: ADME
condition_parameters: human, human e-NPP1 enzyme, pH 8.5; read-out: Drug degradation
Number in %, nothing else.

Worked cases, metabolised at 20 min given:
| compound | system_tested | observed_result |
| --- | --- | --- |
| BP(=O)(OP(=O)(O)OC[C@H]1O[C@@H](n2cnc3c(N)ncnc32)[C@H](O)[C@@H]1O)OP(=O)(O)OP(=O)(O)OC[C@H]1O[C@@H](n2cnc3c(N)ncnc32)[C@H](O)[C@@H]1O.CCCCN(CCCC)CCCC.CCCCN(CCCC)CCCC.CCCCN(CCCC)CCCC.CCCCN(CCCC)CCCC (stereo in doubt; 6A) | e-NPP1 | 1.6 |
| BP(=O)(OP(=O)(O)OC[C@H]1O[C@@H](n2cnc3c(N)ncnc32)[C@H](O)[C@@H]1O)OP(=O)(O)OP(=O)(O)OC[C@H]1O[C@@H](n2ccc(=O)[nH]c2=O)[C@H](O)[C@@H]1O.CCCCN(CCCC)CCCC.CCCCN(CCCC)CCCC.CCCCN(CCCC)CCCC.CCCCN(CCCC)CCCC (stereo in doubt; 8A) | e-NPP1 | 1.5 |
| BP(=O)(OP(=O)(O)OC[C@H]1O[C@@H](n2ccc(=O)[nH]c2=O)[C@H](O)[C@@H]1O)OP(=O)(O)OP(=O)(O)OC[C@H]1O[C@@H](n2cnc3c(N)ncnc32)[C@H](O)[C@@H]1O.CCCCN(CCCC)CCCC.CCCCN(CCCC)CCCC.CCCCN(CCCC)CCCC.CCCCN(CCCC)CCCC (stereo in doubt; 9A) | e-NPP1 | 3 |
| O=c1ccn([C@@H]2O[C@H](COP(=O)(O)OP(=O)(O)OP(=O)(O)OC[C@H]3O[C@@H](n4ccc(=O)[nH]c4=O)[C@H](O)[C@@H]3O)[C@@H](O)[C@H]2O)c(=O)[nH]1 | e-NPP1 | 21 |
| Nc1ncnc2c1ncn2[C@@H]1O[C@H](COP(=O)(O)OP(=O)(O)OP(=O)(O)OC[C@H]2O[C@@H](n3cnc4c(N)ncnc43)[C@H](O)[C@@H]2O)[C@@H](O)[C@H]1O | e-NPP1 | 22 |

For the next question, use this compound.
Input: Give metabolised at 20 min for Nc1ncnc2c1ncn2[C@@H]1O[C@H](COP(=O)(O)OP(=O)(O)OP(=O)(O)OP(=O)(O)OC[C@H]2O[C@@H](n3cnc4c(N)ncnc43)[C@H](O)[C@@H]2O)[C@@H](O)[C@H]1O [DIADENOSINE TETRAPHOSPHATE]
Output: 17
